measuredTarget: horse butyxylcholinesterase (Equus caballus, UniProt P81908)
Sequence (P81908 whole entry): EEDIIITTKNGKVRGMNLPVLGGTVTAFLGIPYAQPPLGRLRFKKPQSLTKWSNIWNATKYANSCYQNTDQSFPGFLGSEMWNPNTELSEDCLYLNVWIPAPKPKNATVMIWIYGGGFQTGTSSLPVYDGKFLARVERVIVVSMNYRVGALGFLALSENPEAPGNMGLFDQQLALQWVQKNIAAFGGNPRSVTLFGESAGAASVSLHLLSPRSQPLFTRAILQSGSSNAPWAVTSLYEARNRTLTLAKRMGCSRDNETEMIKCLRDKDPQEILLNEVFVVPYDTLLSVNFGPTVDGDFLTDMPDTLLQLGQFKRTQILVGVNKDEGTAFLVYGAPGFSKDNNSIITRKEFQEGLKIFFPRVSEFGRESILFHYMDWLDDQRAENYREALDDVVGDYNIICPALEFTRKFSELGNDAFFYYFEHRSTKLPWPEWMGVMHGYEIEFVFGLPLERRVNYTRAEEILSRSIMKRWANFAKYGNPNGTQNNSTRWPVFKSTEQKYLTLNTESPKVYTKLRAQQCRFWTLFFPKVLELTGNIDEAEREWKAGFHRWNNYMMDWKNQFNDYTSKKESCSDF
measuredProperty: IC50 (µM)
# output: bare number, implied unit µM

molecularString	measuredTarget	IC50 [µM]
C=C(C)[C@@H]1CC[C@]2(CO)CC[C@]3(C)[C@H](CC[C@@H]4[C@@]5(C)CC[C@H](O)C(C)(C)[C@@H]5CC[C@]43C)[C@@H]12	horse butyxylcholinesterase (Equus caballus, UniProt P81908)	10.5

Moving on to another compound below.
Item CC(C)[C@H](C)CC[C@@H](C)[C@H]1CC[C@H]2[C@@H]3CC=C4C[C@@H](O)CC[C@]4(C)[C@H]3CC[C@]12C with horse butyxylcholinesterase (Equus caballus, UniProt P81908) - IC50?
10.2

---

measuredTarget: electric eel AChE (Electrophorus electricus)
Sequence (O42275 24-633): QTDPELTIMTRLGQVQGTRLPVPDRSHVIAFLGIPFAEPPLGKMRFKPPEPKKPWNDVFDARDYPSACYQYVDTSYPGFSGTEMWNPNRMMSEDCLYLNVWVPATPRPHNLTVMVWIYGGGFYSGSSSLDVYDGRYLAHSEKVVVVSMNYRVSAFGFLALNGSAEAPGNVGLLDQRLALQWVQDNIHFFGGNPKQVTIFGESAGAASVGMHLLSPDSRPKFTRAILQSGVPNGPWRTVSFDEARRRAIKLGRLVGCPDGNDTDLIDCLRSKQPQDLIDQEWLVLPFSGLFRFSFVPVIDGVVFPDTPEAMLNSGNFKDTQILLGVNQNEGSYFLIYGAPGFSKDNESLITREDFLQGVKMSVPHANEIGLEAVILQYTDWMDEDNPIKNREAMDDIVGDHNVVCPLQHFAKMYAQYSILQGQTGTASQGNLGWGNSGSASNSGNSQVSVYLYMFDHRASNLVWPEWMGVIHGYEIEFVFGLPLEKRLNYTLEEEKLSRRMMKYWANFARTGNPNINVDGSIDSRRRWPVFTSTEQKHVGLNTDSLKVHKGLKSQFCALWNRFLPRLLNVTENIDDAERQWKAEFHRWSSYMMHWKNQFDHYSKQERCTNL
measuredProperty: pIC50
Please express pIC50 as -log10 of the molar concentration.

molecularString	measuredTarget	pIC50
C=C(C)[C@@H]1CC[C@]2(CO)CC[C@]3(C)[C@H](CC[C@@H]4[C@@]5(C)CC[C@H](O)C(C)(C)[C@@H]5CC[C@]43C)[C@@H]12	electric eel AChE (Electrophorus electricus)	5.70

Moving on to another molecule below.
Item CC(C)[C@H](C)CC[C@@H](C)[C@H]1CC[C@H]2[C@@H]3CC=C4C[C@@H](O)CC[C@]4(C)[C@H]3CC[C@]12C with electric eel AChE (Electrophorus electricus) - pIC50?
5.33
